experimentalProtocol: Cytotoxicity in HepG2 cells (intracellular ATP, ATPlite, 48 h)
Type: cell-based, human
experimentalSetup: human, HepG2 cells; IC50 per ratio column head; unit inferred; read-out: Cytotoxicity in HepG2
observable: IC50 at 48 h (µM)
Give the quantity in µM, number only.

Worked examples follow.
In: Fill in IC50 at 48 h for record Cc1cccc2nc(-c3ccc(-c4ccc(CN5CCC(CCN6CCCCC6)CC5)cc4)cc3)[nH]c12 [TCMDC-133929]
Out: 3.7

In: Supply reported IC50 at 48 h belonging to this molecule: COc1cc2nc(N3CCN(C(=O)c4c(Cl)nsc4-c4ccccc4Cl)CC3)nc(N)c2cc1OC.O=C(O)C(F)(F)F [TCMDC-138186]
Out: 8.18

In: Please look at this molecule and report its IC50 at 48 h: COc1cc(NCC(C)CNCc2cn(Cc3ccccc3)c3ccccc23)nc2ccccc12 (stereo not shown) [TCMDC-140496]
Out: 5

In: Using known records, supply IC50 at 48 h for O=C(c1ccc([N+](=O)[O-])o1)N1CCC(Cc2ccc(C(F)(F)F)cc2)CC1 [TCMDC-124805]
Out: 14.1

In: Return the recorded IC50 at 48 h value; entry: COc1cc(NCCCNCc2cn(Cc3cc(Br)cc(Br)c3)c3ccccc23)nc2ccccc12 [TCMDC-140677]
Out: 6.13

Further cases:
In: Item CCCCN(CCCC)CCCCNc1c2ccccc2nc2ccccc12 [TCMDC-137461] : provide IC50 at 48 h
Out: 19

In: Given the molecule C/C=C/C=C/C1=NCCc2cc(OCCC)ccc21 [TCMDC-137442] , write its reported IC50 at 48 h.
Out: 19

In: Complete the entry with IC50 at 48 h for FC(F)(F)c1ccc2[nH]c(-c3ccc(-c4ccc(CNCCN5CCNCC5)cc4)s3)nc2c1 [TCMDC-132862]
Out: 6.9

In: Name the recorded IC50 at 48 h of the item CN1CCN(CCCN(Cc2ccc(-c3cccc(CNC4CCCC4)c3)cc2)C(=O)Nc2ccccc2)CC1 [TCMDC-140605] in your answer.
Out: 14.3

In: Assign IC50 at 48 h to the following record: COc1ccc(CNCc2ccc(F)cc2)cc1-c1ccc(OC)c(S(=O)(=O)NCCN2CCCC2)c1 [TCMDC-132295]
Out: 11.4

###

Measured inhibition at 5 µM accompanies every entry in the list below.
Test system: P. falciparum stage V gametocytes
experimentalProtocol: microbe, parasite or virus in culture
Parameters: BacTiter-Glo ATP luminescence viability of purified stage V gametocytes in 384-well plates, per cent inhibition versus DMSO
experimentalSetup: Plasmodium falciparum, 48 h, read-out: % Inhibition
Report the figure in % without appending any unit label.

Solved cases below.
In: Please list inhibition at 5 µM recorded for the compound CCN(CC)CCCC(C)Nc1c(-c2ccc(OC)cc2)cnc2ccccc12 (centres unmarked) [TCMDC-142265]
Out: 36.6

In: Kindly indicate its recorded inhibition at 5 µM. Item: Cc1cc(NN=Cc2ccccc2)c2cc(F)ccc2n1 [TCMDC-142175]
Out: -16.9

In: # return recorded inhibition at 5 µM for input Fc1ccc(C2N=C(SCCSC3=NC(c4ccc(F)cc4)C(c4ccc(F)cc4)N3)NC2c2ccc(F)cc2)cc1 (centres unmarked) [TCMDC-142269]
Out: -7.65

In: Note inhibition at 5 µM for the compound shown: COc1ccc2nccc(NN=Cc3cccc(F)c3)c2c1 [TCMDC-142131]
Out: 82.2

Moving on to another compound below.
In: Let me know recorded inhibition at 5 µM for Nc1cc(C=Cc2ccc([N+](=O)[O-])o2)nc2ccccc12 [TCMDC-142295] , thanks.
Out: 116
